TESTED_SYSTEM: Hexose transporter 1 (Plasmodium falciparum) (UniProt O97467)
EXPERIMENTAL_PROTOCOL: ST_JUDE_LEISH: Cytotoxicity at 2uM final concentration against transgenic Leishmania Mexicana promastigotes LmPfHT that are glucose transport deficient and complemented with the Plasmodium falciparum hexose transporter. Activity is measured by DNA content using SYBR green in vitro
Assay type: functional
PARAMETER_MEASURED: inhibition (%)

compound=Clc1ccccc1CNc1noc(-c2sccc2Br)n1 value_measured=2.84
compound=COc1ccc(OCC(=O)Nc2cc(-c3nc4ccccc4[nH]3)ccc2Cl)cc1 value_measured=6.14
compound=FC(F)(F)c1ccc2[nH]ccc(=NN=CC=Cc3ccccc3)c2c1 value_measured=0.25
compound=Cc1cccc2nc(-c3ccc(-c4ccc(NC(=O)NCc5cccc(F)c5)cc4)cc3)[nH]c12 value_measured=12.2
compound="CCCCCCc1cc(OC)c(OC)cc1C(C)Nc1ccnc2cc(Cl)ccc12 (stereo unspecified)" value_measured=5.09
compound="Cc1cccc(C(=O)NC(NC(=S)Nc2ccc([N+](=O)[O-])cc2)C(Cl)(Cl)Cl)c1 (stereo unspecified)" value_measured=3.52
compound=CCOc1ccc2[nH]c(C)cc(=NN=Cc3cccc(C)n3)c2c1 value_measured=7.58
compound=N=C(/N=C(/NCCCCCCN/C(=N\C(=N)Nc1ccc(Cl)cc1)N1CCCCC1)N1CCCCC1)Nc1ccc(Cl)cc1 value_measured=-2.65
compound=CCOc1ccc(-c2nonc2NC(=O)c2ccc(Cl)cc2)cc1OCC value_measured=4.43
compound=Cc1nc2nc(N)nc(N)c2c(C)c1Cc1cccc(C#N)c1 value_measured=2.87
compound=O=C(/C=C/c1ccc(Cl)c(Cl)c1)N1CCC(CCN2CCC(c3c[nH]c4cnccc34)CC2)CC1 value_measured=11.9
compound=Cc1cc(O)c(CNC2CCCCC2)cc1C value_measured=1.33
compound=N#Cc1ccc(N2CCN(Cc3ccc(-c4ccc(-c5nc6cc(C(F)(F)F)ccc6[nH]5)s4)cc3)CC2)nc1 value_measured=1.76
compound=Cc1ccc(-c2nn3c(O)c4c(nc3c2C)CCCC4)cc1 value_measured=1.68
compound="CC(CN(C)C)C(=O)Nc1cccc(-c2ccc(-c3nc4cc(F)ccc4[nH]3)cc2)c1 (stereo unspecified)" value_measured=-3.5
compound="CCOc1ccccc1CCNC(C)Cc1ccc(C(=O)Nc2ccc(CC(C)NCCc3cccc(Cl)c3)cc2)cc1 (stereo unspecified)" value_measured=34.1
compound=CCOC(=O)CNCC(=O)c1ccc(OCc2ccccc2)cc1 value_measured=0.64
compound=CCOc1ccc(C(=O)Nc2cc(Br)c3c(c2)CNCC3)cc1Br value_measured=12.7
compound="CC1CN(CCCn2c3ccccc3c3ccc(C(=O)CCCN(C)C)cc32)CC(C)N1 (stereo unspecified)" value_measured=1.4
compound="CN(C)CCC(O)(c1ccc(Br)cc1)c1cccnc1 (stereo unspecified)" value_measured=2.98
compound=CN1CCN(CC(=O)Nc2ccc(-c3cccc(-c4nc5cc(C(F)(F)F)ccc5[nH]4)c3)cc2)CC1 value_measured=1.68
compound="O=C(Cc1ccccc1)NC(c1ccco1)c1cc(Cl)c2cccnc2c1O (stereo unspecified)" value_measured=-0.27
compound="Cc1cc(NC(=O)NCCN2CCC(NS(=O)(=O)c3ccc(C(F)(F)F)cc3)C2)c2ccccc2n1 (stereo unspecified)" value_measured=11.8
compound=CN(C)S(=O)(=O)c1ccc(N2CCN(CCC3(c4cccc(F)c4)CCN(C(=O)C(C)(C)C)CC3)CC2)c2nonc12 value_measured=8.17
compound=CC(=O)c1ccc(-c2ccc(C(=O)NCCCCN3CCC(c4ccc5c(c4OCC(N)=O)CCCC5)CC3)cc2)s1 value_measured=0.76
compound=COc1ccccc1CCNc1nc(C)cc(NCCC(=O)Nc2ccccc2)n1 value_measured=2.34
compound=CS(=O)(=O)c1ccccc1CNC(=O)c1ccc(-c2ccc(-c3nc4cc(C(F)(F)F)ccc4[nH]3)s2)cc1 value_measured=2.99
compound=Cc1nnsc1C(=O)Nc1cccc(-c2ccc(-c3nc4cc(F)ccc4[nH]3)s2)c1 value_measured=0.37
compound="Cc1cc(-c2ccc3c(c2)CCN(CCC2CCC(NC(=O)/C=C/c4ccccc4F)CC2)CC3)on1 (stereo unspecified)" value_measured=6.81
compound=COc1cc(Cc2cnc(N)nc2N)cc(OCCCCCC(N)=O)c1OC value_measured=-2.79
compound="N#CC(c1cccc(Cl)c1)c1ccc2c(C(F)(F)F)cc(C(F)(F)F)nc2n1 (stereo unspecified)" value_measured=7.47
compound=CS(=O)(=O)CCNCc1cccc(-c2cc3c(Nc4ccc(OCc5cccc(F)c5)c(Cl)c4)ncnc3s2)c1 value_measured=-0.11
compound=CC(C)N1CCN(C(=O)c2ccc(CN(C)CCCN3CCN(c4cccc(Cl)c4Cl)CC3)s2)CC1 value_measured=0.7
compound=CC1(C)NC(N)=NC(=N)N1OCCCNC(=O)c1ccc([N+](=O)[O-])cc1 value_measured=3.33
compound=Cc1cc(=O)c2cc(Oc3cccc(OC(F)(F)F)c3)ccc2[nH]1 value_measured=2.75
compound="COc1ccccc1OCCN(CC(O)COc1cccc2[nH]c3ccccc3c12)CC(O)COc1cccc2[nH]c3ccccc3c12 (stereo unspecified)" value_measured=2.43
